# Tested on: Saccharomyces cerevisiae
# ASSAY REMARKS: protein stability index of tFT-peptide fusion (C-terminal peptide) (PSI (0-1 scale)); higher = more stable (slower turnover)
# RUN PARAMETERS: genetic background: das1 deletion; temperature: 30 C
MEASURE NAME: protein stability index
Enter a number only.

- SEQUENCE DATA: "KCVNCGHRWKEN [RPC11 C-terminal 12 aa]"
  TESTED TARGET: "Saccharomyces cerevisiae"
  VALUE OBSERVED: 0.708
- SEQUENCE DATA: "VSNNLIIDEETF [BIM1 C-terminal 12 aa]"
  TESTED TARGET: "Saccharomyces cerevisiae"
  VALUE OBSERVED: 0.717
- SEQUENCE DATA: "GNEPMEKFIQSL [YMR090W C-terminal 12 aa]"
  TESTED TARGET: "Saccharomyces cerevisiae"
  VALUE OBSERVED: 0.694
- SEQUENCE DATA: "EQLEQDDGRKGG [LSM12 C-terminal 12 aa]"
  TESTED TARGET: "Saccharomyces cerevisiae"
  VALUE OBSERVED: 0.682

Let's switch to this sequence now.
According to the records, this sequence VRVPKKSKKLKK [PDR10 C-terminal 12 aa] displays protein stability index of 0.717
